Every entry's value here was drawn from paper PMC12416549.

experimentalTarget: T1, TNFR1 (Homo sapiens, UniProt P19438)
T1 chain: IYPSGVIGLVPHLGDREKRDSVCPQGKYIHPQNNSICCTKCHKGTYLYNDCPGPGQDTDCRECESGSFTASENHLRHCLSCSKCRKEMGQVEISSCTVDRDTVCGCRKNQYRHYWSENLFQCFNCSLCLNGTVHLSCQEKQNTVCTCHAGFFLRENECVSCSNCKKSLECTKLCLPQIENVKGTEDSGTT
methodDescription: yeast display SC50
recordedMetric: apparent Kd (screen) (nM)

A88F (designed binder) MTLQELLREEALRRAEAEAFRYALELLAEKFPEQKEYLLDLAEEIESQIRSLSGVDVEDVRKFLDKEWAWVKELLAEHPAELAEVEAFRAARLAELRAEVEAKVAA; 0.718

A = A105D (designed binder) MTLQELLREEALRRAEAEAFRYALELLAEKFPEQKEYLLDLAEEIESQIRSLSGVDVEDVRKFLDKEWAWVKELLAEHPAELAEVEAARAARLAELRAEVEAKVDA
B = A23H (designed binder) MTLQELLREEALRRAEAEAFRYHLELLAEKFPEQKEYLLDLAEEIESQIRSLSGVDVEDVRKFLDKEWAWVKELLAEHPAELAEVEAARAARLAELRAEVEAKVAA
C = W68Y (designed binder) MTLQELLREEALRRAEAEAFRYALELLAEKFPEQKEYLLDLAEEIESQIRSLSGVDVEDVRKFLDKEYAWVKELLAEHPAELAEVEAARAARLAELRAEVEAKVAA
Form: Sort by [apparent Kd (screen)] Order [ ascending ] Form field (ranking): labels in requested order.
C, A, B
